The measured values listed here are drawn from PubChem BioAssay (NCI).

system: HCC-2998 colon; assay: NCI tumour cell line growth inhibition, 48 h
observation-type: TGI

Some entries whose results are on file:
O=C(Nc1ccc(Oc2cccc(Cl)c2)c(Cl)c1)c1cnccn1	> 36 µM
CCN(CC)c1ccc2c(cc1=O)[C@@H](NC(C)=O)CCc1cc(OC)c(OC)c(OC)c1-2	> 100 µM
CC(=NCC(=O)O)c1ccccc1	> 100 µM
O=C1[C@H]2ON(c3ccccc3)C(c3ccc(Cl)cc3Cl)[C@H]2C(=O)N1c1ccc(Cc2ccc(N3C(=O)[C@@H]4ON(c5ccccc5)C(c5ccc(Cl)cc5Cl)[C@@H]4C3=O)cc2)cc1 (stereo partly specified)	> 100 µM

I would be grateful if you could share the reported TGI for `Nc1ccc2c(c1)Cc1ccccc1-2` .
> 100 µM

Please give the result for `Cc1c2nc3ccccc3sc-2cc(=O)c1C` too.
> 100 µM
